Target: T1, E-selectin (ES-Rg) (Homo sapiens, UniProt P16581 P16581:22-556)
T1 chain: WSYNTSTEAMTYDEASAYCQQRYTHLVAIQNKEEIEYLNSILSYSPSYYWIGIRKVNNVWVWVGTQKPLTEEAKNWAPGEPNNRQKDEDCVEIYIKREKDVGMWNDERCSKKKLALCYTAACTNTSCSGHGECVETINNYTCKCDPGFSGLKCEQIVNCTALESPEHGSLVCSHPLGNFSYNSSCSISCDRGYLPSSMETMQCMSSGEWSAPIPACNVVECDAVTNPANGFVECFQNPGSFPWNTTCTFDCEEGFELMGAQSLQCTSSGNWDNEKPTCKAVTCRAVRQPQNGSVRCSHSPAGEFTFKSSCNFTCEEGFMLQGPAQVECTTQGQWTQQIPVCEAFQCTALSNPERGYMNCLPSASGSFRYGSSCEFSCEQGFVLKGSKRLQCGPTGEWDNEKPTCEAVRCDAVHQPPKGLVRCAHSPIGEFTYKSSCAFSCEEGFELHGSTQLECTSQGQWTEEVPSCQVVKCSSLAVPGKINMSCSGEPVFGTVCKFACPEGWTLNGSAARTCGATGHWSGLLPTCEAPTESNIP
Assay: filter; room temp
Details: tags: human IgG1 Fc fusion (provided by A. Varki); chain copies: 2; label: 32P; hairpin
pKd: −log10 of the molar value.

BINDER: 227 (ssDNA) DNA: CTACCTACGATCTGACTAGCCGGACATGAGCGTTACAAGGTGCTAAACGTAACGTACTTGCTTACTCTCATGTAGTTCC
pKd: 7.48
